target: human thrombin with His tag (human, UniProt P00734 328-622); experiment: Biacore
Collected Kd values appear next to each entry.
propertyMeasured: Kd (nM)

| binder | unitDescriptor | testValue |
| --- | --- | --- |
| aTM-1 (antibody, V domains shown) VH: EVQLVESGGGLVQPGGSLRLSCAASGFTFSDYYMAWVRQAPGKGLEWVSNINSDGSSTYYLDSLKSRFTISRDNSKNTLYLQMNSLKAEDTAVYYCARDHYIGASYVFDYWGQGTTVTVSS VL: DIQMTQSPSSLSASVGDRVTITCKASEDIYNRLAWYQQKPGKAPRLIISGATSLETGVPSRFSGSGSGKDYTLTISSLQPEDFATYYCQQYWSTPWTFGGGTKVEIK | nM | 0.191 |
| humanized antibody h1601-008 (antibody, human IgG4 S228P, kappa, V domains shown) VH: EVQLVESGGGLVQPGGSLRLSCAASGFTFSDYYMAWVRQAPGKGLEWVSNINSDGSSTYYLDSLKSRFTISRDNSKNTLYLQMNSLKAEDTAVYYCARDHYHGNSYVFDYWGQGTTVTVSS VL: DIQMTQSPSSLSASVGDRVTITCKASEDIYNRLAWYQQKPGKAPRLIISGATSLETGVPSRFSGSGSGKDYTLTISSLQPEDFATYYCQQYWSTPWTFGGGTKVEIKR | nM | 7.78 |
| aTM-7 (antibody, V domains shown) VH: EVQLVESGGGLVQPGGSLRLSCAASGFTFSDYYMAWVRQAPGKGLEWVSNINSDGSSTYYLDSLKSRFTISRDNSKNTLYLQMNSLKAEDTAVYYCARDHYMGNSYVFDTWGQGTTVTVSS VL: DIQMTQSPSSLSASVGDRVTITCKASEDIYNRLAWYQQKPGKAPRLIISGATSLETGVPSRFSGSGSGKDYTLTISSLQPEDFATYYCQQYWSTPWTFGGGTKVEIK | nM | 0.172 |
